# test_target: T1, human GPC3 (human, UniProt P51654 25-563)
# T1 construct: range 25-563; soluble analyte; also called soluble human GPC3; glypican 3
# T1 sequence (P51654 25-563 limits assumed): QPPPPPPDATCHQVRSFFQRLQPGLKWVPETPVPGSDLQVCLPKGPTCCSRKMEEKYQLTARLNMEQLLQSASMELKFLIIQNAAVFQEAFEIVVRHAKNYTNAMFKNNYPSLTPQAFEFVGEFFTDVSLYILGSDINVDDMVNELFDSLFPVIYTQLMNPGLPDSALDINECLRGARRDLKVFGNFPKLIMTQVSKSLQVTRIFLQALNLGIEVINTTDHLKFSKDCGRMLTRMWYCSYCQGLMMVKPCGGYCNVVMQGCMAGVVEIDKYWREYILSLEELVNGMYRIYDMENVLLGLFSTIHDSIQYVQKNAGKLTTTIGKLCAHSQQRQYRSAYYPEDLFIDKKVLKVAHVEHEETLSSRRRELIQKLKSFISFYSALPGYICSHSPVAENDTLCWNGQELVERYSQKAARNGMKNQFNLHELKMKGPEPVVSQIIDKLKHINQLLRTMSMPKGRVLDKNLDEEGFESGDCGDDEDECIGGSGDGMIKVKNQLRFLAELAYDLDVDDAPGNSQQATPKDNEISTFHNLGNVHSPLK
# assay_protocol: SPR
readout_type: pKd
Please treat pKd as minus the base-10 logarithm of the molar concentration.

See these solved cases before continuing.
binder: H0610-G1dh/none-Hi-Kn010G3/L0089-k0 (antibody, V domains shown, one-arm) VH: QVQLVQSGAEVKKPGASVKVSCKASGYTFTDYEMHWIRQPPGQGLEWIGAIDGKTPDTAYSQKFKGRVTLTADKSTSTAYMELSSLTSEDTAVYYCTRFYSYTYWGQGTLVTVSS VL: DIVMTQSPLSLPVTPGEPASISCRSSQSLVHSNRNTYLLWYQQKPGQAPRLLIYKVSNRFSGVPDRFSGSGSGTDFTLKISRVEAEDVGVYYCGQGTQVPYTFGQGTKLEIK
pKd: 8.28
//
binder: GCH013-G1dh/none-Hi-Kn010G3/L0000-k0 (antibody, V domains shown, one-arm) VH: QVQLVQSGAEVKKPGASVTVSCKASGYTFTDYEMHWIRQPPGQGLEWIGAIDGKTPDTAYEQKFKGRVTLTADKSTSTAYMELSSLTSEDTAVYYCTRFYSYTYWGQGTLVTVSS VL: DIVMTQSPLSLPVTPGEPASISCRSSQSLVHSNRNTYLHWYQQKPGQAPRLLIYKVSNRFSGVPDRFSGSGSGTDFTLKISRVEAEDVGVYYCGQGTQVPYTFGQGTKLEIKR
pKd: 8.35

Now for another entry.
I'd like to know its pKd. The binder in question is H0610-G1dh/none-Hi-Kn010G3/L0090-k0 (antibody, V domains shown, one-arm) VH: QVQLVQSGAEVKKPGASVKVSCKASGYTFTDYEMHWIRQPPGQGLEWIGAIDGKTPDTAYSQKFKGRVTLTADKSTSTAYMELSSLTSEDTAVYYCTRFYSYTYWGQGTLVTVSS VL: DIVMTQSPLSLPVTPGEPASISCRSSQSLVHSNRNTYLMWYQQKPGQAPRLLIYKVSNRFSGVPDRFSGSGSGTDFTLKISRVEAEDVGVYYCGQGTQVPYTFGQGTKLEIK
8.95
